Subject Of Test: T1, mucin subtype 5AC expressed on BxPC3 cells (human, UniProt P98088 28-5654)
T1 construct: whole, on cells; also called mucin 5AC; MUC5AC
Protocol Text: flow cytometry on BxPC3 cells expressing mucin subtype 5AC, 20 ug/mL antibody, Alexa Fluor 488 anti-human IgG
Quantity Name: binding result

Exam item: Quick one: binding result of humanized antibody 4 (antibody, V domains shown, also called VH-4 combined with VL-3; mucin subtype 5AC-specific humanized antibody) VH: EVQLLESGGGLVQPGGSLRLSCAASGFTFSNYGMSWVRQAPGKGLEWVSTISNSGRYTYFPDSVKGRFTISRDNSKNTLYLQMNSLRAEDTAVYYCAKHLDYANYDAMDYWGQGTLVTVSS VL: DIQMTQSPSSLAVSLGDRVTITCRASKSVTTSDFSYMHWYQQKPGLAPKLLIYLASNLESGVPSRFSGSGSGTDFTFTISSLQPEDIATYYCQHSREFPWTFGQGTKVEVK ?
Marked response: binds

Exam item: Field entry: humanized antibody 6 (antibody, V domains shown, Detected with anti-human IgG; also called VH-5 combined with VL-5; mucin subtype 5AC-specific humanized antibody) VH: EVQLVESGGGLVKPGGSLRLSCAASGFTFSNYGMSWVRQAPGKGLEWVSTISNSGRYTYFPDSVKGRFTISRDNAKNSLYLQMNSLRAEDTAVYYCARHLDYANYDAMDYWGQGTLVTVSS VL: DIVMTQTPLSSPVTLGQPASISCRASKSVTTSDFSYMHWLQQRPGQPPRLLIYLASNLESGVPDRFSGSGAGTDFTLKISRVEAEDVGVYYCQHSREFPWTFGQGTKVEIK
Marked response: binds

Exam item: Another: humanized antibody 7 (antibody, V domains shown, Detected with anti-human IgG; also called VH-6 combined with VL-5; mucin subtype 5AC-specific humanized antibody) VH: EVQLVESGGGVVRPGGSLRLSCAASGFTFDNYGMSWVRQAPGKGLEWVSTISNSGRYTYFPDSVKGRFTISRDNAKNSLYLQMNSLRAEDTALYHCARHLDYANYDAMDYWGQGTLVTVSS VL: DIVMTQTPLSSPVTLGQPASISCRASKSVTTSDFSYMHWLQQRPGQPPRLLIYLASNLESGVPDRFSGSGAGTDFTLKISRVEAEDVGVYYCQHSREFPWTFGQGTKVEIK
Marked response: binds

Exam item: Record: humanized antibody 3 (antibody, V domains shown, Detected with anti-human IgG; also called VH-4 combined with VL-2; mucin subtype 5AC-specific humanized antibody) VH: EVQLLESGGGLVQPGGSLRLSCAASGFTFSNYGMSWVRQAPGKGLEWVSTISNSGRYTYFPDSVKGRFTISRDNSKNTLYLQMNSLRAEDTAVYYCAKHLDYANYDAMDYWGQGTLVTVSS VL: DIQMTQSPSTLAVSLGDRVTITCRASKSVTTSDFSYMHWYQQKPGKAPKLLMYLASNLESGVPSRFIGSGSGTEFTLTISSLQPDDFATYYCQHSREFPWTFGQGTKVEVK
Marked response: binds

Next:
Exam item: I am curious: what binding result value has been reported for humanized antibody 2 (antibody, V domains shown, Detected with anti-human IgG; also called VH-4 combined with VL-5; mucin subtype 5AC-specific humanized antibody) VH: EVQLLESGGGLVQPGGSLRLSCAASGFTFSNYGMSWVRQAPGKGLEWVSTISNSGRYTYFPDSVKGRFTISRDNSKNTLYLQMNSLRAEDTAVYYCAKHLDYANYDAMDYWGQGTLVTVSS VL: DIVMTQTPLSSPVTLGQPASISCRASKSVTTSDFSYMHWLQQRPGQPPRLLIYLASNLESGVPDRFSGSGAGTDFTLKISRVEAEDVGVYYCQHSREFPWTFGQGTKVEIK ?
Marked response: binds

Taken from patent WO2013157102A1.
